Target Under Test: human GluN1/GluN2B NMDA receptors (Homo sapiens, UniProt Q05586+Q13224)
Sequence (Q13224 27-1484, other chains not shown): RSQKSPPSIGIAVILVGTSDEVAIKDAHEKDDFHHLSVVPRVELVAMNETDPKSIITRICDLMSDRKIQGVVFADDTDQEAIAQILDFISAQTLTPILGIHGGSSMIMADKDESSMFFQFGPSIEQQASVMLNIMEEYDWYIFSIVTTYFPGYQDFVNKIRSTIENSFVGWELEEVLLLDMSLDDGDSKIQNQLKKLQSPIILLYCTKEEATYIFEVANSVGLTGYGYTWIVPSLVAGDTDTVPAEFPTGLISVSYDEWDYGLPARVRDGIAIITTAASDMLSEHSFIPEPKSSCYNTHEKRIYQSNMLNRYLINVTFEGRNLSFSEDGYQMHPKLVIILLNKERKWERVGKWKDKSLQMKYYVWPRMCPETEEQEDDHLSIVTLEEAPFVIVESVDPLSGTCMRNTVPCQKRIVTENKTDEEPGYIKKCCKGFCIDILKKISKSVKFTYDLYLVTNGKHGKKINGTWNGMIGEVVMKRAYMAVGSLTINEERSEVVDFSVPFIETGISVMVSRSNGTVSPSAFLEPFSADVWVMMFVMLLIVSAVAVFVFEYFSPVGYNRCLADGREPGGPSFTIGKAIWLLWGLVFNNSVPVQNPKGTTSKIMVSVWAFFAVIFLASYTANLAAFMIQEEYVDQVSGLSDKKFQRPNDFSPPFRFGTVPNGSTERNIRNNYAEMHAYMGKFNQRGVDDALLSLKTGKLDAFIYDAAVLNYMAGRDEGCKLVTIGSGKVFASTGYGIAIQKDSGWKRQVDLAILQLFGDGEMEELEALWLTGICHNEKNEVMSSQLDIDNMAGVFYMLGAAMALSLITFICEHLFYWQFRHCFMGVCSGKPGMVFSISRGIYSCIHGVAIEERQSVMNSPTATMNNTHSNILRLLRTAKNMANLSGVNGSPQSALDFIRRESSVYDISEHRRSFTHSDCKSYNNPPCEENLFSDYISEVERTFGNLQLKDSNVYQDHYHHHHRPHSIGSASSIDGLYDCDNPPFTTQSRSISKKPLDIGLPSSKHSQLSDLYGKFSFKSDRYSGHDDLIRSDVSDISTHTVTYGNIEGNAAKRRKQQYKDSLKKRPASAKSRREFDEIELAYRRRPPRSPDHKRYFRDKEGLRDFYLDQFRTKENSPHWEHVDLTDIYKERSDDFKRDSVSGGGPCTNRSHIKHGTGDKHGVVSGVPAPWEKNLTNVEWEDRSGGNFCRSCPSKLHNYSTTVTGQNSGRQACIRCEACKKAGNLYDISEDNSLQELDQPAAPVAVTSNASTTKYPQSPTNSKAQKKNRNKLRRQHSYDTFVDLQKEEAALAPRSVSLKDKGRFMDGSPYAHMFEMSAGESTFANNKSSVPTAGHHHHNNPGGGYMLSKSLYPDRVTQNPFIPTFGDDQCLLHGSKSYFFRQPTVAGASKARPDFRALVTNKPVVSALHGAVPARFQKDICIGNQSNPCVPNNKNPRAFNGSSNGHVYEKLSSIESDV
Test Summary: Calcium flux (FLIPR) assay on cloned human NR1/GluN2B ion channels expressed in mammalian cells, standard assay
Measurement Parameters: glutamate ~EC40 and 10 μM glycine, stable cell line with Tet-On induced expression
Below: a set of entries, each annotated with reported IC50.
Numeric only. Scale: nM

Previously resolved entries follow.
Fc1ccc(-c2cnc3cnn(CC4CCCO4)c3c2)cc1C(F)F (racemic) [Example 18]: 35
COCCn1ncc2ncc(-c3ccc(F)c(C)c3)cc21 [Example 89]: 754
CCC(=O)Cn1nc(F)c2ncc(-c3ccc(F)c(F)c3)cc21 [Example 35]: 5

IC50 reported for this molecule CCC(=O)Cn1ncc2ncc(-c3ccc(Cl)s3)cc21 [Example 27] : 13

IC50 reported for this molecule CC[S+]([O-])Cn1ncc2ncc(-c3ccc(F)c(OC(F)F)c3)cc21 (racemic) [Example 12] : 146

IC50 reported for this molecule Fc1ccc(-c2cnc3cnn(CC(F)(F)C4CC4)c3c2)cc1C(F)F [Example 108] : 45

IC50 reported for this molecule CCC(=O)Cn1ncc2ncc(-c3ccc(F)c(C(F)(F)F)c3)cc21 [Example 39] : 75

IC50 reported for this molecule CN1CCC(Cn2ncc3ncc(-c4ccc(F)c(OC(F)F)c4)cc32)C1=O (racemic) [Example 119] : 352

IC50 reported for this molecule O=C(Cn1ncc2ncc(-c3ccc(F)c(F)c3)cc21)C1CC1 [Example 65] : 13

IC50 reported for this molecule Fc1ccc(-c2cnc3cnn(CC(F)(F)C4CC4)c3c2)cc1OC(F)F [Example 109] : 69

IC50 reported for this molecule CCC(=O)Cn1ncc2ncc(-c3ccc(F)cc3)cc21 [Example 28] : 32

IC50 reported for this molecule CC(C)C(=O)Cn1ncc2ncc(-c3cccc(C(F)(F)F)c3F)cc21 [Example 50] : 76

IC50 reported for this molecule CC(C)C(=O)Cn1ncc2ncc(-c3cc(F)c(F)c(F)c3)cc21 [Example 53] : 41

IC50 reported for this molecule CCC(O)Cn1ncc2ncc(-c3ccc(F)c(OC(F)F)c3)cc21 (racemic) [Example 92] : 282

IC50 reported for this molecule Cc1cc(-c2cnc3cnn(C[C@@H](O)C4CC4)c3c2)ccc1F [Example 103] : 272

IC50 reported for this molecule O=C1NC[C@@H](Cn2ncc3ncc(-c4ccc(F)c(C(F)F)c4)cc32)O1 [Example 21] : 1840

IC50 reported for this molecule COC(Cn1ncc2ncc(-c3cc(F)c(F)c(F)c3)cc21)C1CC1 (racemic) [Example 11] : 1780

IC50 reported for this molecule OC(Cn1ncc2ncc(-c3cc(F)c(F)c(F)c3)cc21)C1CC1 (racemic) [Example 10] : 696

IC50 reported for this molecule O=C(Cn1ncc2ncc(-c3cccc(Cl)c3F)cc21)C1CC1 [Example 67] : 16
